- Target: human FFAR1 (GPR40) (Homo sapiens, UniProt O14842)
- Construct: Flag; expressed in transfected cells; host or cells: HEK293T
- Sequence (O14842 whole entry): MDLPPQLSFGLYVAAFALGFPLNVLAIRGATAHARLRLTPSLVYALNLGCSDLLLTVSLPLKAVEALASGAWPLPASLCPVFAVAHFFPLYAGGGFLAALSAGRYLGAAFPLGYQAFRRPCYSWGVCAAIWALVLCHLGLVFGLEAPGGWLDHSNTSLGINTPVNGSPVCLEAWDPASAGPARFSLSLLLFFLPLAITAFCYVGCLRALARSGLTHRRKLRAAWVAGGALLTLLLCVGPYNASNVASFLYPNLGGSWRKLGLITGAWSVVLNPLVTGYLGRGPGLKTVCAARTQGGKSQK
- Method notes: NFAT-RE-based reporter gene activity assay (Dual-Glo luciferase) for GPR40 agonistic activity in co-transfected HEK293T cells
- Assay type: cell-based
- Condition label: 4-hour treatment, class symbols
Result type: Efficacy (%)

Worked set:
COc1cccc(N2CCC(c3oc4cc([C@@H](CC(=O)O)C5CC5)ccc4c3C(=O)Nc3ccccc3C)CC2)c1 ... ††† (Efficacy (%) > 150)
COc1cccc(N2CCC(c3oc4cc([C@@H](CC(=O)O)C5CC5)ccc4c3C(C)OCC3CC3)CC2)c1 (some centres unmarked) ... ††† (Efficacy (%) > 150)
CCOC(C)c1c(C2CCN(c3cccc(OC)c3)CC2)oc2cc([C@@H](CC(=O)O)C3CC3)ccc12 (some centres unmarked) ... ††† (Efficacy (%) > 150)
COc1cccc(N2CCC(c3oc4cc(C(CC(=O)O)C5CC5)ccc4c3C(=O)Nc3cccc(F)c3F)CC2)c1 (centres unmarked) ... ††† (Efficacy (%) > 150)

Under human FFAR1 (GPR40) (Homo sapiens, UniProt O14842), report Efficacy (%) for COc1cccc(N2CCC(c3oc4cc(C(CC(=O)O)C5CC5)ccc4c3-c3nnc(C4(C)CCCCC4)o3)CC2)c1 (centres unmarked)
††† (Efficacy (%) > 150)

Under human FFAR1 (GPR40) (Homo sapiens, UniProt O14842), report Efficacy (%) for `COc1ccc(C(=O)N(C)CC(C)(C)C)c(N2CCC(c3oc4cc([C@@H](CC(=O)O)C5CC5)ccc4c3-c3cnn(C(C)(C)C)c3)CC2)c1`
††† (Efficacy (%) > 150)

---

- Target: human FFAR1 (GPR40) (Homo sapiens)
- Construct: Flag; expressed in transfected cells; host or cells: HEK293T
- Method notes: NFAT-RE-based reporter gene activity assay (Dual-Glo luciferase) for GPR40 agonistic activity in co-transfected HEK293T cells
- Type: cell-based
- Condition label: 4-hour treatment
Result type: EC50

Check the records and state EC50 for CC(C)(C)n1cc(-c2c(C3CCN(c4ccccc4)CC3)oc3cc(C(CC(=O)O)C4CC4)ccc23)cn1 (stereo not shown)
100 to 500 nM

Check the records and state EC50 for COc1cccc(N2CCC(c3oc4cc(C(CC(=O)O)C5CC5)ccc4c3-c3nnc(C(C)(C)C)s3)CC2)c1 (stereo not shown)
10 to 100 nM

Check the records and state EC50 for COc1cccc(N2CCC(c3oc4cc(C(CC(=O)O)C5CC5)ccc4c3C(=O)Nc3nc(C(C)(C)C)cs3)CC2)c1 (stereo not shown)
100 to 500 nM

Check the records and state EC50 for `COc1cccc(N2CCC(c3oc4cc([C@@H](CC(=O)O)C5CC5)ccc4c3CN(CC(C)(C)C)c3cccc(Cl)c3)CC2)c1`
100 to 500 nM

Check the records and state EC50 for `COc1ccc(C(=O)N(C)c2ccccc2)c(N2CCC(c3oc4cc([C@@H](CC(=O)O)C5CC5)ccc4c3-c3cnn(C(C)(C)C)c3)CC2)c1`
100 to 500 nM

Check the records and state EC50 for COc1cccc(N2CCC(c3oc4cc(C(CC(=O)O)C5CC5)ccc4c3C(=O)NC34CC(C3)C4)CC2)c1 (stereo not shown)
100 to 500 nM

Check the records and state EC50 for `COc1cccc(N2CCC(c3oc4cc([C@@H](CC(=O)O)C5CC5)ccc4c3-c3ccnc(C)c3)CC2)c1`
10 to 100 nM

Check the records and state EC50 for COc1cccc(N2CCC(c3oc4cc(C(CC(=O)O)C5CC5)ccc4c3C(=O)Nc3c(F)cc(F)cc3F)CC2)c1 (stereo not shown)
100 to 500 nM

Check the records and state EC50 for COc1ccc(F)c(N2CCC(c3oc4cc(C(CC(=O)O)C5CC5)ccc4c3-c3cccc(N(CC(C)(C)C)C(C)=O)c3)CC2)c1 (stereo not shown)
100 to 500 nM

Check the records and state EC50 for `COc1ccc(F)c(N2CCC(c3oc4cc([C@H](CC(=O)O)C5CC5)ccc4c3-c3cccc(C(C)(C)C)c3)CC2)c1`
100 to 500 nM

Check the records and state EC50 for `COc1cccc(N2CCC(c3oc4cc([C@@H](CC(=O)O)C5CC5)ccc4c3-c3ccc4cccc(F)c4n3)CC2)c1`
10 to 100 nM

Check the records and state EC50 for COc1ccc(F)c(N2CCC(c3oc4cc([C@@H](CC(=O)O)C5CC5)ccc4c3-c3ccc(C(C)OC)cc3)CC2)c1 (stereo partly shown)
100 to 500 nM

Check the records and state EC50 for `COc1cccc(N2CCC(c3oc4cc([C@@H](CC(=O)O)C5CC5)ccc4c3C(=O)Nc3cc(OC)ccc3F)CC2)c1`
10 to 100 nM

---

- Method notes: Pharmacokinetic evaluation in ICR mice (intravenous and gavage)
- Assay type: in vivo
- Condition label: Intravenous Administration (5 mg/kg)
Result type: Vss_obs (L/kg)
Just the number please, in L/kg, no unit attached.

Check the records and state Vss_obs for `COc1cccc(N2CCC(c3oc4cc([C@@H](CC(=O)O)C5CC5)ccc4c3-c3cnn(C(C)(C)C)c3)CC2)c1`
0.405

Check the records and state Vss_obs for `COc1ccc(F)c(N2CCC(c3oc4cc([C@@H](CC(=O)O)C5CC5)ccc4c3-c3cccc(C(C)(C)C)c3)CC2)c1`
0.668

Check the records and state Vss_obs for `COc1ccc(F)c(N2CCC(c3oc4cc([C@@H](CC(=O)O)C5CC5)ccc4c3-c3cnn(C(C)(C)C)c3)CC2)c1`
0.546

Check the records and state Vss_obs for COc1ccc(F)c(N2CCC(c3oc4cc(C(CC(=O)O)C5CC5)ccc4c3-c3ccc(C(C)(C)C)cc3)CC2)c1 (centres unmarked)
0.494

Check the records and state Vss_obs for `COc1cccc(N2CCC(c3oc4cc([C@@H](CC(=O)O)C5CC5)ccc4c3-c3cccc(C(C)(C)C)c3)CC2)c1`
0.52

---

- Target: human FFAR1 (GPR40) (Homo sapiens)
- Construct: Flag
- Method notes: NFAT-RE-based reporter gene activity assay (Dual-Glo luciferase) for GPR40 agonistic activity in co-transfected HEK293T cells
- Condition label: 4-hour treatment
pEC50: −log10 of the molar value.
Result type: pEC50

Check the records and state pEC50 for COc1cccc(N2CCC(c3oc4cc([C@@H](CC(=O)O)C5CC5)ccc4c3C(=O)Nc3cc(N4CCCCC4)ccc3Cl)CC2)c1 [Compound 284]
≥ 8.00

Check the records and state pEC50 for COc1ccc(F)c(N2CCC(c3oc4cc(C(C5CC5)C(C)(C)C(=O)O)ccc4c3-c3ccc(C(C)(C)C)cc3)CC2)c1 (stereo not shown) [Compound 222]
6.30 to 7.00

Check the records and state pEC50 for COc1cccc(N2CCC(c3oc4cc([C@@H](CC(=O)O)C5CC5)ccc4c3C(O)C(C)(C)C)CC2)c1 (stereo partly shown) [Compound 423]
6.30 to 7.00

Check the records and state pEC50 for COc1cccc(N2CCC(c3oc4cc(C(CC(=O)O)C5CC5)ccc4c3C(=O)N3CC4(CCC4)C3)CC2)c1 (stereo not shown) [Compound 360]
< 6.30

Check the records and state pEC50 for COc1cccc(N2CCC(c3oc4cc([C@@H](CC(=O)O)C5CC5)ccc4c3C(OCC(C)C)c3cccc(C)c3)CC2)c1 (stereo partly shown) [Compound 428]
6.30 to 7.00

Check the records and state pEC50 for COc1cccc(N2CCC(c3oc4cc([C@@H](CC(=O)O)C5CC5)ccc4c3CN(C(=O)C(C)(C)C)c3cccc(Cl)c3)CC2)c1 [Compound 448]
6.30 to 7.00

Check the records and state pEC50 for COc1cccc(N2CCC(c3oc4cc(C(CC(=O)O)C5CC5)ccc4c3C(=O)Nc3cccc(F)c3F)CC2)c1 (stereo not shown) [Compound 254]
6.30 to 7.00

---

- Target: human FFAR1 (GPR40) (Homo sapiens)
- Construct: Flag; expressed in transfected cells; host or cells: HEK293T
- Method notes: NFAT-RE-based reporter gene activity assay (Dual-Glo luciferase) for GPR40 agonistic activity in co-transfected HEK293T cells
- Type: cell-based
- Condition label: 4-hour treatment, class symbols
Result type: Efficacy (%)

COc1cccc(N2CCC(c3oc4cc(C(CC(=O)O)C5CC5)ccc4c3-c3ncc(C(C)C)s3)CC2)c1 (centres unmarked) ... ††† (Efficacy (%) > 150)
COc1ccc(-c2c(C3CCN(c4cc(OC)ccc4F)CC3)oc3cc([C@@H](CC(=O)O)C4CC4)ccc23)cc1 ... ††† (Efficacy (%) > 150)
COc1cccc(N2CCC(c3oc4cc([C@@H](CC(=O)O)C5CC5)ccc4c3-c3cccc(C)c3)CC2)c1 ... ††† (Efficacy (%) > 150)

---

- Method notes: Pharmacokinetic evaluation in ICR mice (intravenous and gavage)
- Assay type: in vivo
- Condition label: mouse, plasma, po, gavage 10 mg/kg versus intravenous 5 mg/kg
Result type: bioavailability (%)
Just the number please, in %, no unit attached.

Check the records and state bioavailability for COc1cccc(N2CCC(c3oc4cc([C@@H](CC(=O)O)C5CC5)ccc4c3-c3cccc(C(C)(C)C)c3)CC2)c1 [Compound 12]
44.6

Check the records and state bioavailability for COc1ccc(F)c(N2CCC(c3oc4cc([C@@H](CC(=O)O)C5CC5)ccc4c3-c3cccc(C(C)(C)C)c3)CC2)c1 [Compound 166]
48

Check the records and state bioavailability for COc1cccc(N2CCC(c3oc4cc([C@@H](CC(=O)O)C5CC5)ccc4c3-c3cnn(C(C)(C)C)c3)CC2)c1 [Compound 38]
77.4

Check the records and state bioavailability for COc1ccc(F)c(N2CCC(c3oc4cc(C(CC(=O)O)C5CC5)ccc4c3-c3ccc(C(C)(C)C)cc3)CC2)c1 (stereo not shown) [Compound 168]
24
